Each recorded value in this set is attributed to the supplement of paper PMC11061612.

# Test system: Hs-633T (Other Solid Carcinomas)
# method: combination Emax (second highest fraction inhibited in the dose matrix, 72 h); higher = more inhibition; extreme values may be limits of the assay
# maps each entry to its combination Emax
The answer should be a number; do not append a unit.

CN(CCO)CC[C@H](CSc1ccccc1)Nc1ccc(S(=O)(=O)NC(=O)c2ccc(N3CCC([C@@H](O)c4ccccc4-c4ccc(Cl)cc4)CC3)cc2)cc1S(=O)(=O)C(F)(F)F [AZD4320] + CC(=O)O[C@H]1C(=O)[C@@]2(C)[C@H]([C@H](OC(=O)c3ccccc3)[C@]3(O)C[C@H](OC(=O)[C@H](O)[C@@H](NC(=O)c4ccccc4)c4ccccc4)C(C)=C1C3(C)C)[C@]1(OC(C)=O)CO[C@@H]1C[C@@H]2O [Paclitaxel] (first compound max 1 µM, 7x7, partner max 3 µM) :: 1

Incoming: Entry under review: CC1(C)CCC(CN2CCN(c3ccc(C(=O)NS(=O)(=O)c4ccc(NCC5CCOCC5)c([N+](=O)[O-])c4)c(Oc4cnc5[nH]ccc5c4)c3)CC2)=C(c2ccc(Cl)cc2)C1 [Venetoclax] + Cn1cnc2c(F)c(Nc3ccc(Br)cc3Cl)c(C(=O)NOCCO)cc21 [Selumetinib] (first compound max 1 µM, 7x7, partner max 3 µM) . Reported combination Emax?
Outgoing: 0.228

Incoming: Entry under review: Cc1nc(Nc2ncc(C(=O)Nc3c(C)cccc3Cl)s2)cc(N2CCN(CCO)CC2)n1 [Dasatinib] + CC(=O)Nc1cccc(-n2c(=O)n(C3CC3)c(=O)c3c(Nc4ccc(I)cc4F)n(C)c(=O)c(C)c32)c1 [Trametinib] (first compound max 2 µM, 7x7, partner max 1 µM) . Reported combination Emax?
Outgoing: 0.939

* * *

# maps each entry to its combination Emax
# System: 8305C (Thyroid Gland Carcinoma)
# method: combination Emax (second highest fraction inhibited in the dose matrix, 72 h); higher = more inhibition; extreme values may be limits of the assay
The answer should be a number; do not append a unit.

CN(CCO)CC[C@H](CSc1ccccc1)Nc1ccc(S(=O)(=O)NC(=O)c2ccc(N3CCC([C@@H](O)c4ccccc4-c4ccc(Cl)cc4)CC3)cc2)cc1S(=O)(=O)C(F)(F)F [AZD4320] + C[C@@H]1COCCN1C2=NC(=NC(=C2)C3(CC3)[S@](=N)(=O)C)C4=C5C=CNC5=NC=C4 [AZD6738] (first compound max 1 µM, 7x7, partner max 10 µM) :: 0.834

Incoming: Short answer please: combination Emax, 8305C (Thyroid Gland Carcinoma), entry C[C@@H]1COCCN1c1cc(C2([S@](C)(=N)=O)CC2)nc(-c2ccnc3[nH]ccc23)n1 [AZD6738] + Nc1ccn([C@@H]2O[C@H](CO)[C@@H](O)C2(F)F)c(=O)n1 [Gemcitabine] (first compound max 10 µM, 7x7, partner max 0.3 µM)
Outgoing: 0.721

Incoming: Short answer please: combination Emax, 8305C (Thyroid Gland Carcinoma), entry CCc1c2c(nc3ccc(O)cc13)-c1cc3c(c(=O)n1C2)COC(=O)[C@]3(O)CC [SN-38] + CN(C)CCCOc1ccc(-c2ccc3ncc4c(c3c2)n(C2CCOCC2)c(=O)n4C)cn1 [AZD0156] (first compound max 0.3 µM, 7x7, partner max 1 µM)
Outgoing: 0.572

* * *

# maps each entry to its Bliss excess
# Tested on: NCI-H69 (Small Cell Lung Carcinoma);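 note: after 72 h of two-drug dosing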
# method: Bliss excess, mean over the matrix (fraction); higher = more synergy
The answer should be a number; do not append a unit.

Recorded Bliss excess, per entry:
CN(CCO)CC[C@H](CSc1ccccc1)Nc1ccc(S(=O)(=O)NC(=O)c2ccc(N3CCC([C@@H](O)c4ccccc4-c4ccc(Cl)cc4)CC3)cc2)cc1S(=O)(=O)C(F)(F)F [AZD4320] + CN(C)CCCOc1ccc(-c2ccc3ncc4c(c3c2)n(C2CCOCC2)c(=O)n4C)cn1 [AZD0156] (first compound max 1 µM, 7x7, partner max 1 µM) :: -0.0465
NC1(C(=O)N[C@@H](CCO)c2ccc(Cl)cc2)CCN(c2ncnc3[nH]ccc23)CC1 [Capivasertib] + C[C@@H]1COCCN1C2=NC(=NC(=C2)C3(CC3)[S@](=N)(=O)C)C4=C5C=CNC5=NC=C4 [AZD6738] (first compound max 10 µM, 7x7, partner max 10 µM) :: -0.0397

Incoming: Entry under review: Cn1cnc2c(F)c(Nc3ccc(Br)cc3Cl)c(C(=O)NOCCO)cc21 [Selumetinib] + C[C@@H]1COCCN1C2=NC(=NC(=C2)C3(CC3)[S@](=N)(=O)C)C4=C5C=CNC5=NC=C4 [AZD6738] (first compound max 10 µM, 7x7, partner max 10 µM) . Reported Bliss excess?
Outgoing: -0.0686
